- assay.system: cynomolgus PAI-1 (cynomolgus, UniProt P05121 24-402 (human entry), limits assumed)
- protocol.details: cell-based or functional assay
measured.parameter: IC50 chromogenic

Antibody 04, scFv (scFv, V domains shown) VH: QVRLQQSGAEVKKPGSSVKVSCKASGGTFSSYAISWVRQAPGQGLEWMGGIIPTFGTANYAQKFRGRVTITANESTSTAYMELSGLRSEDTAVYYCAREKRQWLEGRFDYWGRGTLVTVSS VL: DIQMTQSPSFLSASIGDRITITCRASEGIYHSLAWYQQKPGKAPKLLIHRATSLASGTPSRFGGSGSGTDFALTISSLQPDDFATYYCQQYSNYPLTFGGGTKLEIK | 2.1 nM
Antibody 24, scFv (scFv, V domains shown) VH: QVQLQQSGAEVKKPGSSVKVSCKASGGTFSSYAISWVRQAPGQGLEWMGGIIPTFVTANYAQKFQGRVSITADESTSTAYMELSGLRSEDTAVYYCAREKRQWLEGHFDYWGRGTPVTVSS VL: DIQMTQSPSFLSASIGDRVTITCRASEGIYHALAWYQQKPGKAPKLLIYRASSLASGAPSRFSGSGSGTDFTLTISSLQPDDFATYYCQQYSNYPLTFGGGTKLEIK | 1.1 nM
Antibody 01, scFv (scFv, V domains shown) VH: QVQLVQSGAEVKKPGSSVKVSCKASGGTFSSYAISWVRQAPGQGLEWMGGIIPIFGTANYAQKFQGRVTITADESTSTAYMELSSLRSEDTAVYYCAREKRQWLEGHFDYWGRGTLVTVSS VL: DIQMTQSPSTLSASVGDRVTITCRASEGIYRSLAWYQQKPGKAPKLLIYKASSLASGVPSRFSGSGSGTEFTLTISSLQPDDFATYYCQQYSNYPLTFGGGTKVEIK | 1.2 nM
